inhibition at 10 µM for assorted molecules
subject_of_test: cholesterol side-chain cleavage cytochrome P450 (mitochondrial) (Bos taurus, UniProt P00189)
Sequence (P00189 whole entry): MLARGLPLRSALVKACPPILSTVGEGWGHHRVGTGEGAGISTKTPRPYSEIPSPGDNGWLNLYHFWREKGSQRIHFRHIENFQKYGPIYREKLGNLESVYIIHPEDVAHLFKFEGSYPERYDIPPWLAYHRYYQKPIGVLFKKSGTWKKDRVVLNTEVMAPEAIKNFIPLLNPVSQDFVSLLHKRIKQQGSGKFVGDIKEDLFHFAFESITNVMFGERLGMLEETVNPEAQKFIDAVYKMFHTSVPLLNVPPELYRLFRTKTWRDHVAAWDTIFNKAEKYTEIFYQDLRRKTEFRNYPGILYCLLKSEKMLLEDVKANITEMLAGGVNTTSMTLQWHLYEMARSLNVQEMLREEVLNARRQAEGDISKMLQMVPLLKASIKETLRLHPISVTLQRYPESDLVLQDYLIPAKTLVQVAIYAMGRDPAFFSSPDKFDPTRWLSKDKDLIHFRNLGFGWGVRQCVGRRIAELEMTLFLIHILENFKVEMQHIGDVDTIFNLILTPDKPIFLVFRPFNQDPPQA
protocol_summary: Percent inhibition of cholesterol side-chain cleavage cytochrome P450 at 10 uM in bovine adrenocortical mitochondrial acetone powder preparations
experimental_conditions: cattle
metric: inhibition at 10 µM (%)

molecule="CC(NC(=O)c1ccccc1)C1CCC2C3CC=C4CC(O)CCC4(C)C3CCC12C (stereo unspecified)" metric="inhibition at 10 µM" endpoint_result=84
molecule="CC(NC(=O)Cc1ccccc1)C1CCC2C3CC=C4CC(O)CCC4(C)C3CCC12C (stereo unspecified)" metric="inhibition at 10 µM" endpoint_result=44
molecule="CC(NC(=O)Cc1cccc(I)c1)C1CCC2C3CC=C4CC(O)CCC4(C)C3CCC12C (stereo unspecified)" metric="inhibition at 10 µM" endpoint_result=73
molecule="CC(NC(=O)Cc1ccc([N+](=O)[O-])cc1)C1CCC2C3CC=C4CC(O)CCC4(C)C3CCC12C (stereo unspecified)" metric="inhibition at 10 µM" endpoint_result=49
molecule="CC(C(=O)NCc1ccccc1)C1CCC2C3CC=C4CC(O)CCC4(C)C3CCC12C (stereo unspecified)" metric="inhibition at 10 µM" endpoint_result=31
molecule="COc1ccc(CCNC(C)C2CCC3C4CC=C5CC(O)CCC5(C)C4CCC23C)cc1 (stereo unspecified)" metric="inhibition at 10 µM" endpoint_result=40
